Data origin, for the record: ChEMBL document CHEMBL1201862

# target or test system: FAD-linked sulfhydryl oxidase ALR (Homo sapiens, UniProt P55789)
# Sequence (P55789 whole entry): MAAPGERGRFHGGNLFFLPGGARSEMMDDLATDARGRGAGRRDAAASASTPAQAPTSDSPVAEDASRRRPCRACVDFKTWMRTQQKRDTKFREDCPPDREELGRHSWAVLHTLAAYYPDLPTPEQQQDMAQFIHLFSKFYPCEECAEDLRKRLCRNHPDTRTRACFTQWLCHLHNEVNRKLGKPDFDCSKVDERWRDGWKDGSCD
# procedure text: inhibitors of human ALR sulfhydryl oxidase, dose response, biochemical, H2O2 detection, luminescence, cherry-pick (AID 493248)
Active and inactive are the calls of the source.

{"columns": ["compound", "AC50"],
 "data": [
  ["O=C(O)c1cc(O)ccc1NC(=O)c1cccc2ccccc12", "3410 nM (active)"],
  ["Nc1ccc(CCc2ccc(N)cc2)cc1", "1910 nM (active)"],
  ["CCN(CC)c1ccc(NC(=O)C2CCCN(S(=O)(=O)c3cccnc3)C2)c(C)c1 (configuration not stated)", "2300 nM (active)"],
  ["CCN(CC)c1ccc(NC(=O)c2nc3nc(C)cc(C(F)F)n3n2)cc1", "1510 nM (active)"],
  ["CC1CC(Nc2ccccc2)c2ccccc2N1C(=O)c1ccco1 (configuration not stated)", "21100 nM (active)"],
  ["COc1ccc(N2CCN(C(CNS(C)(=O)=O)c3ccco3)CC2)cc1 (configuration not stated)", "4670 nM (active)"],
  ["COc1ccc2c(c1)NP(=S)(Oc1ccccc1)N2 (configuration not stated)", "2020 nM (active)"],
  ["NS(=O)(=O)c1ccc(Nc2nc(-c3ccc(O)cc3O)cs2)cc1", "3120 nM (active)"],
  ["O=C(NCC(c1cccnc1)N1CCN(c2ccccc2)CC1)c1ccco1 (configuration not stated)", "3080 nM (active)"],
  ["COc1cccc(C(=O)Nc2ccccc2N2CCCC2)c1", "1540 nM (active)"],
  ["COC(=O)c1ccc(CSc2nc3cc(C)ccc3[nH]2)o1", "2710 nM (active)"],
  ["Oc1cc2ccccc2cc1-c1nnc(S)o1", "301 nM (active)"]
]}

====

# target or test system: UniProt:P10635
# Sequence (P10635 whole entry): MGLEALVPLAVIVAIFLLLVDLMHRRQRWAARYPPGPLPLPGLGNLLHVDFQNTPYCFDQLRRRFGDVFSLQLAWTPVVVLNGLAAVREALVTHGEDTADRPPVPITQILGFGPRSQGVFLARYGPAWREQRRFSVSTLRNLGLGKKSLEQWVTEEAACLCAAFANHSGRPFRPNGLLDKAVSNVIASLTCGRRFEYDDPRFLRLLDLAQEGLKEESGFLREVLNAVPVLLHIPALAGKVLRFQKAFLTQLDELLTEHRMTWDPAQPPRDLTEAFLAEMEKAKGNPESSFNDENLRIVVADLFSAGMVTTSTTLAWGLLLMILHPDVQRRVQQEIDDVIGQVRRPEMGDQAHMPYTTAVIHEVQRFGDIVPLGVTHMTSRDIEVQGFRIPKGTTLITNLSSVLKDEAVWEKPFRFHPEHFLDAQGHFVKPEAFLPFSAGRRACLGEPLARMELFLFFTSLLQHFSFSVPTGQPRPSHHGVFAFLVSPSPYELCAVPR
# AC50 listing for each entry below
recorded endpoint: AC50

{"columns": ["compound", "recorded endpoint", "measured"],
 "data": [
  ["Nc1nc(N)c(-c2cccc(C(F)(F)F)c2)c(Cc2cccc(C(F)(F)F)c2)n1", "AC50", "3.98 µM (inconclusive)"],
  ["COC(=O)[C@@]1(Cc2ccc(F)cc2)[C@H]2c3cc(C(=O)N(C)C)n(Cc4ccc(OC)c(OC)c4)c3C[C@H]2CN1C(=O)c1ccccc1", "AC50", "39.8 µM (inconclusive)"],
  ["CCOc1ccc(CC(C(N)=O)C(N)=O)cc1CN(C)C", "AC50", "17.8 µM (inconclusive)"],
  ["COc1cc(C(=O)OC(C)C(=O)Nc2ccc3c(c2)OCO3)ccc1OCc1c(C)noc1C (configuration not stated)", "AC50", "28.2 µM (inconclusive)"],
  ["CCC(C)(C)NC(=NC#N)Nc1cccnc1", "AC50", "39.8 µM (inconclusive)"],
  ["CC1(C)CC(=O)C2=C(C1)Oc1nc3ccccc3cc1C2C(C#N)C#N (configuration not stated)", "AC50", "0.112 µM (inconclusive)"],
  ["CN(C)c1ncnc2ccc(-c3ccccc3C(F)(F)F)cc12", "AC50", "15.8 µM (inconclusive)"],
  ["Cc1ccc2c(c1)C(=O)[C@@]1(O)CCN(c3ccccc3)C1=N2", "AC50", "39.8 µM (inconclusive)"],
  ["CCOC(=O)CC1C(=O)NCCN1S(=O)(=O)c1ccccc1Cl (configuration not stated)", "AC50", "0.891 µM (inconclusive)"],
  ["CN(C)C(=O)c1ccc(-c2cncnc2NCc2cccs2)cc1", "AC50", "39.8 µM (inconclusive)"],
  ["CCOC(=O)n1c(=O)n(Cc2ccccc2Cl)c2ccccc21", "AC50", "28.2 µM (inconclusive)"],
  ["CS(=O)(=O)N1CCC[C@@]2(CCN(Cc3nccs3)C2)C1", "AC50", "39.8 µM (inconclusive)"],
  ["O=C(CCN1C(=O)C2C3C=CC(C3)C2C1=O)NCCN1CCCc2ccccc21 (configuration not stated)", "AC50", "22.4 µM (inconclusive)"],
  ["O=C(Nc1ccccc1)N1CCC2(CC1)CCN(S(=O)(=O)c1ccccc1)CC2", "AC50", "39.8 µM (inconclusive)"],
  ["CN1CCN(c2ncc3nc(-c4ccc(Cl)cc4)c(=O)n(Cc4ccc(F)cc4)c3n2)CC1", "AC50", "39.8 µM (inconclusive)"],
  ["COc1ccc(S(=O)(=O)Nc2ccc(F)cc2)c(C)c1C", "AC50", "0.447 µM (inconclusive)"],
  ["NC(=O)C1(N2CCCCC2)CCN(C(=O)c2ccc(-n3cnnn3)cc2)CC1", "AC50", "1.58 µM (inconclusive)"],
  ["N[C@H]1C[C@H]1c1ccccc1", "AC50", "12.6 µM (inconclusive)"],
  ["Cc1nc2sccc2c(=O)n1-c1ccccc1Cl", "AC50", "14.1 µM (inconclusive)"],
  ["CCc1cc2c(nc1CC)CCN(CC/C(C)=N/OC[C@@H](O)COCc1ccco1)C2", "AC50", "3.98 µM (inconclusive)"],
  ["O=S(=O)(c1cnccc1N1CCN(/N=C/c2ccccc2)CC1)N1CCCCC1", "AC50", "25.1 µM (inconclusive)"],
  ["O=P(O)(CCc1ccccc1)C(O)c1ccccc1 (configuration not stated)", "AC50", "35.5 µM (inconclusive)"],
  ["N=C1/C(=C\\c2ccc(SCc3ccco3)o2)C(=O)N=C2SC=NN12", "AC50", "15.8 µM (inconclusive)"],
  ["Cc1cccc2cc(CN(Cc3ccccc3)C(=O)c3cccc(F)c3)c(Cl)nc12", "AC50", "15.8 µM (inconclusive)"],
  ["O/N=C/c1ccccc1OCc1ccc(Cl)cc1", "AC50", "22.4 µM (inconclusive)"],
  ["COc1ccccc1NC(=O)C1=C(C)Nc2nnnn2C1c1cccc(Br)c1 (configuration not stated)", "AC50", "15.8 µM (inconclusive)"],
  ["O=C(c1cnc(-c2ccccc2)s1)c1ccc(Cl)cc1Cl", "AC50", "22.4 µM (inconclusive)"]
]}
